Measured EC50, listed per entry.
- Tested on: Influenza virus strain A/CA/04/2009 (H1N1)
- method summary: organism not typed
- Type: cell-based
- particulars: MDCK, 72 h, read-out: H1N1 EC50 (@ 50% Via)

# molecule, subject of test, EC50
data = [
    ("COc1c(Br)cc(C2NC(=O)NC3=C2CCc2ccccc23)cc1Br (stereo not drawn)", "Influenza virus strain A/CA/04/2009 (H1N1)", "> 40 µM"),
    ("O=C1NC2=C(CCc3ccccc32)C(c2ccc(Cl)cc2Cl)N1 (stereo not drawn)", "Influenza virus strain A/CA/04/2009 (H1N1)", "> 50 µM"),
    ("CCOc1ccc(C2NC(=O)NC3=C2CCc2ccccc23)cc1C (stereo not drawn)", "Influenza virus strain A/CA/04/2009 (H1N1)", "37 µM"),
    ("COc1ccc(C2NC(=O)NC3=C2COc2ccccc23)cc1C (stereo not drawn)", "Influenza virus strain A/CA/04/2009 (H1N1)", "3.1 µM"),
    ("COc1ccc(C2NC(=O)NC3=C2CCc2ncccc23)cc1Br (stereo not drawn)", "Influenza virus strain A/CA/04/2009 (H1N1)", "> 40 µM"),
    ("O=C1NC2=C(CCc3ccccc32)C(c2ccc(O)c(Br)c2)N1 (stereo not drawn)", "Influenza virus strain A/CA/04/2009 (H1N1)", "0.118 µM"),
]

Input: Could you tell me which EC50 is on file for Cc1ccc(C2NC(=O)NC3=C2CCCc2ccccc23)cc1 (stereo not drawn) ?
Output: 9.5 µM

Input: Could you tell me which EC50 is on file for COc1cccc2c1CCC1=C2NC(=O)NC1c1ccc(C)cc1 (stereo not drawn) ?
Output: > 50 µM

Input: Could you tell me which EC50 is on file for COc1ccc(C2NC(=O)NC3=C2CCc2ccccc23)cc1Br (stereo not drawn) ?
Output: 0.425 µM

Where these numbers come from: patent US20120040966A1
